Recorded measurements of protein stability index, one per entry
B1: FUNDC2 (parent)
chain: YIKVDWQRVEKDMKKAKEQLKIRK

- Variants of: B1
- assay.comment: protein stability index of a GFP-peptide fusion (GPS, HEK-293T) (PSI 1-6); higher = more stable;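 note: lentivirally expressed fusions sorted by FACS into six bins by GFP to DsRed ratio, PSI derived from sequencing read proportions per bin multiplied by bin number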
- setup.conditions: c terminus: a fixed tail appended
observable: protein stability index

>>> df
   alteration               observable  test_result
0        I22M  protein stability index         1.97
1         V9G  protein stability index         1.95
2         R8F  protein stability index         1.99
